Entry source: PubChem BioAssay (NCI)

- Test system: EKVX NSCLC
- assay-text: NCI tumour cell line growth inhibition, 48 h
Reported values of TGI for individual entries
reported-endpoint: TGI

{"columns": ["molecule", "assay-value"],
 "data": [
  ["O=C1NC(=S)S/C1=C/c1ccc2c(c1)OCO2", "> 100 µM"],
  ["CCC[CH2][Sn]([CH2]CCC)([O]C(=O)CN)[O]C(=O)CN", "51.2 µM"],
  ["O=C(/C=C/c1ccc(O)c(O)c1)OCC(OC(=O)/C=C/c1ccc(O)c(O)c1)C(=O)O (stereo not drawn)", "> 100 µM"],
  ["COc1cc(C2c3cc4c(cc3OC(C)(N3CCCC3)C2C)OCO4)cc(OC)c1OC (stereo not drawn)", "> 50.8 µM"],
  ["COc1ccc(C=O)cc1O[Si](C)(C)C(C)(C)C", "> 100 µM"],
  ["COC(=O)c1ccc2[nH]c(O)c(C(=Nc3ccc(N(C)C(=O)CN4CCN(C)CC4)cc3)c3ccc4c(c3)OCO4)c2c1", "3.45 µM"],
  ["Cc1ccc(C(=O)N/N=C(\\N=Nc2cccc([N+](=O)[O-])c2)c2ccc(N(CCC#N)CCC#N)cc2C)cc1", "> 69.4 µM"],
  ["Nc1cc([N+](=O)[O-])ccc1C(=O)N1CCC[C@H]1CO", "> 100 µM"]
]}

###

Reported values of TGI for individual entries
- Test system: SN12C renal
- assay-text: NCI tumour cell line growth inhibition, 48 h
reported-endpoint: TGI

{"columns": ["molecule", "assay-value"],
 "data": [
  ["N#Cc1c(-c2ccc(Cl)cc2)c2c(n(C3OC(CO)C(O)C(O)C3O)c1=S)CCCC2 (stereo not given)", "> 100 µM"],
  ["Cc1ccc(C2=C(c3ccc(C)cc3)C3(c4ccc(C)cc4)C4C(=O)OC(=O)C4C2(c2ccc(C)cc2)S3=O)cc1 (stereo not given)", "87.9 µM"],
  ["O=C(O)CCCc1ccc2ccc3ccccc3c2c1", "> 100 µM"],
  ["COC1(OC)N=C(N)C2(C#N)C(c3ccccc3)NC3=C(CCC3)C12C#N (stereo not given)", "> 100 µM"],
  ["COc1ccc(C2=C[C@]3(O)CCCN3C[C@@H]2c2ccc(OC)c(OC)c2)cc1", "> 100 µM"],
  ["O=c1[nH]c2ccccc2cc1-c1nc2ccc(Cl)cc2[nH]1", "> 100 µM"],
  ["O=c1oc2ccccc2c(Nc2ccc3c(c2)Sc2ccccc2O3)c1[N+](=O)[O-]", "> 100 µM"],
  ["CCOC(=O)Nc1cc2c(c(N)n1)N=C(c1ccc(OC)cc1)CN2", "54.5 µM"],
  ["Cc1ccc2c(ccc(/C=C/c3ccc(O)c4ncccc34)[n+]2C)c1", "35.6 µM"],
  ["CSC(SC)(C(=O)O)c1cc(-c2c(Cl)cccc2Cl)no1", "> 100 µM"],
  ["O=C(NC(=O)c1c(F)cccc1F)Nc1cccc(Oc2ncc(Cl)cn2)c1", "> 100 µM"],
  ["CC(=O)OCC1OC(N2C(c3ccccc3)=CC(c3cccs3)C(C#N)=C2S)C(OC(C)=O)C(OC(C)=O)C1OC(C)=O (stereo not given)", "> 100 µM"],
  ["Cc1n(CC(C)C)c2c([n+]1C)C(=O)c1ccccc1C2=O", "0.0671 µM"],
  ["ONC1=Nc2cc(Cl)ccc2C(=S)N2CSCC12 (stereo not given)", "> 100 µM"],
  ["O=C1C(=O)c2ccccc2C(O)=C1C(C1=C(O)c2ccccc2C(=O)C1=O)c1ccc(Cl)cc1", "3.66 µM"]
]}

###

- Test system: SK-MEL-5 melanoma
- assay-text: NCI tumour cell line growth inhibition, 48 h

{"columns": ["molecular-string", "TGI"],
 "data": [
  ["CC(=O)c1ccc(NC(=O)/C(CC(=O)c2sc(-c3cccnc3)nc2C)=N/NC(N)=O)cc1", "> 100 µM"],
  ["COc1ccc(NC(=O)CC/C(CC(=O)c2ccco2)=N/NC(=O)C(N)=O)cc1", "> 100 µM"],
  ["Cc1nnc(-c2ccc(C)c(-c3ccc(C(=O)Nc4cccc(C#N)c4)cc3)c2)o1", "> 25 µM"]
]}

###

Reported values of TGI for individual entries
- Test system: DMS 114 small cell lung
- assay-text: NCI tumour cell line growth inhibition, 48 h
reported-endpoint: TGI

{"columns": ["molecule", "assay-value"],
 "data": [
  ["CCC1=CCN(c2cc(C)ccn2)OC1c1ccc(OC)cc1 (stereo not drawn)", "91.6 µM"],
  ["N#CCC(=O)N/N=C1/C(=O)N(c2ccc(Cl)cc2)C(=O)C(=O)C1c1nc2ccccc2s1 (stereo not drawn)", "> 100 µM"],
  ["O=C(Nc1cccc(O)c1)C(=O)C1C(=O)NC(=S)NC1=O", "> 100 µM"]
]}

###

- System: 786-0 renal
- assay-text: NCI tumour cell line growth inhibition, 48 h
Reported values of TGI for individual entries

{"columns": ["molecular-string", "tgt", "TGI"],
 "data": [
  ["Cc1nnc(-c2ccc(C)c(-c3ccc(C(=O)Nc4cccc(C#N)c4)cc3)c2)o1", "786-0 renal", "> 25 µM"],
  ["CCOC(=O)c1ccc(N=C/C=C(\\Nc2ccc(C(=O)OCC)cc2)C23CC4CC(CC(C4)C2)C3)cc1", "786-0 renal", "> 100 µM"],
  ["CCC(CC)NC1=C(NC(C)=O)C(=O)c2ccccc2C1=O", "786-0 renal", "> 50 µM"],
  ["CN(/N=C/c1ccc(C(=O)O)cc1)C1=NCCCCN1", "786-0 renal", "> 100 µM"],
  ["O=C(O)CCCc1ccc2ccc3ccccc3c2c1", "786-0 renal", "> 100 µM"]
]}

###

- Tested on: OVCAR-3 ovarian
- assay-text: NCI tumour cell line growth inhibition, 48 h; in the data active = GI50 below about 0.43 µM; inactive = the rest
Classes used: Y = active, N = inactive

{"columns": ["compound", "category"],
 "data": [
  ["CCN(CC)CCNC(Cc1ccccc1)c1ccc(OCc2ccccc2)cc1 (centres undefined)", "N"],
  ["COc1cccc2c1C(=N)c1c(O)c3c(c(O)c1C2=O)C[C@@](O)(C(C)=O)C[C@@H]3O[C@H]1C[C@H](N)[C@H](O)[C@H](C)O1", "N"],
  ["CCOc1cccc(/C=N/NC(=O)c2cccc(Nc3ccnc(C(F)(F)F)c3)c2)c1O", "Y"],
  ["CC1(C)N=C(N)N=C(N)N1c1ccc(CCC(=O)Nc2ccc(S(=O)(=O)F)cc2)c(Cl)c1", "N"]
]}

###

- Test system: NCI-H460 lung
- assay-text: NCI tumour cell line growth inhibition, 48 h

{"columns": ["compound", "tgt", "TGI"],
 "data": [
  ["N#Cc1c(-c2ccc(Cl)cc2)c2c(n(C3OC(CO)C(O)C(O)C3O)c1=S)CCCC2 (stereo not drawn)", "NCI-H460 lung", "> 100 µM"],
  ["Cc1cc(Cl)ccc1OCC(=O)Nc1nc2c(Cl)cccc2s1", "NCI-H460 lung", "> 100 µM"],
  ["COC(=O)C1=C(OC(=O)/C(=C/c2ccccc2)c2ccc(Cl)cc2Cl)C(C(=O)OC)[C@@]2(O)[C@@H](C(=O)OC)[C@H](C)C[C@@H]1[C@@H]2C(=O)OC (stereo partly drawn)", "NCI-H460 lung", "> 100 µM"]
]}

###

- System: EKVX NSCLC
- assay-text: NCI tumour cell line growth inhibition, 48 h

{"columns": ["molecular-string", "TGI"],
 "data": [
  ["O=C(/C=C/c1ccccc1)Nc1ncc(Cc2ccccc2Cl)s1", "> 100 µM"],
  ["CC(=O)Oc1c(C)c(-c2ccccc2)c(C)c(-c2ccccc2)c1C(=S)c1ccccc1", "> 100 µM"],
  ["C#CCn1c(=O)c(I)cn(/C(=C/C(=O)OCC)C(=O)OCC)c1=O", "10.2 µM"]
]}

###

- Test system: K-562 leukemia
- assay-text: NCI tumour cell line growth inhibition, 48 h; in the data active = GI50 below about 0.43 µM; inactive = the rest
Classes used: active, inactive

{"columns": ["molecular-string", "tgt", "category"],
 "data": [
  ["O=C(/C=C/c1ccccc1)Nc1ncc(Cc2ccccc2Cl)s1", "K-562 leukemia", "active"],
  ["N[C@H](C(=O)O)[C@@H]1CC(Cl)=NO1", "K-562 leukemia", "inactive"],
  ["COC(=O)c1ccc2[nH]c(O)c(C(=Nc3ccc(N(C)C(=O)CN4CCN(C)CC4)cc3)c3ccc4c(c3)OCO4)c2c1", "K-562 leukemia", "active"]
]}

###

- System: BT-549 breast
- assay-text: NCI tumour cell line growth inhibition, 48 h; in the data active = GI50 below about 0.43 µM; inactive = the rest
Classes used: true (active), false (inactive)

{"columns": ["molecular-string", "tgt", "category"],
 "data": [
  ["CCCOC(=O)N[C@H]1CCc2c(Cl)c(OC)c(OC)c(OC)c2-c2ccc(SC)c(=O)cc21", "BT-549 breast", "true"],
  ["Nc1n[nH]c2cccc(C#Cc3cccc(NC(=O)c4cccc(C(F)(F)F)c4)c3)c12", "BT-549 breast", "false"],
  ["N/N=C\\c1c2ccccc2c(=O)n2c1oc1ccccc12", "BT-549 breast", "false"]
]}
